Values from ChEMBL document CHEMBL3988442

# Target Under Test: Arginase-2, mitochondrial (Homo sapiens)
# Method: in vitro enzyme assay to detect the production of urea directly proportional to the activity of Arginase II
# Format: functional
# Design: scale not given: in the data most compounds retested in dose-response had high values
# Test Settings: 33.3 µM
Parameter Measured: Percent Effect (%)
The reply should contain only the number, in %.

The cases that follow already have their Percent Effect on record.
• CC(C)CS(=O)(=O)CC(=O)N(C)Cc1ccc(OC(F)F)cc1 = 0.476
• Cn1cccc1C(CNC(=O)c1ccc(F)cc1F)N1CCCCCC1 (stereo not drawn) = -3.23

## Task Look up Percent Effect for this molecule: O=C1CCc2cc(-c3csc(CCN4CCCC4=O)n3)ccc2N1
## Result -4.98

## Task Can you handle CCC(=O)N1CCC(Cc2nccnc2Nc2ccccn2)CC1 next?
## Result -1.77

## Task Can you handle Cc1ccc(C#N)cc1NC(=O)NC1CCCN(c2ncccn2)C1 (stereo not drawn) next?
## Result 1.02

## Task Can you handle CC(C)C(=O)N1CCCC(c2cc(C(F)F)n3ncnc3n2)C1 (stereo not drawn) next?
## Result -6.73

====

# Target Under Test: Chromo domain-containing protein 1 (Saccharomyces cerevisiae (strain ATCC 204508 / S288c) (Baker's yeast)) (UniProt P32657)
# Sequence (P32657 whole entry, the tested form may be a part): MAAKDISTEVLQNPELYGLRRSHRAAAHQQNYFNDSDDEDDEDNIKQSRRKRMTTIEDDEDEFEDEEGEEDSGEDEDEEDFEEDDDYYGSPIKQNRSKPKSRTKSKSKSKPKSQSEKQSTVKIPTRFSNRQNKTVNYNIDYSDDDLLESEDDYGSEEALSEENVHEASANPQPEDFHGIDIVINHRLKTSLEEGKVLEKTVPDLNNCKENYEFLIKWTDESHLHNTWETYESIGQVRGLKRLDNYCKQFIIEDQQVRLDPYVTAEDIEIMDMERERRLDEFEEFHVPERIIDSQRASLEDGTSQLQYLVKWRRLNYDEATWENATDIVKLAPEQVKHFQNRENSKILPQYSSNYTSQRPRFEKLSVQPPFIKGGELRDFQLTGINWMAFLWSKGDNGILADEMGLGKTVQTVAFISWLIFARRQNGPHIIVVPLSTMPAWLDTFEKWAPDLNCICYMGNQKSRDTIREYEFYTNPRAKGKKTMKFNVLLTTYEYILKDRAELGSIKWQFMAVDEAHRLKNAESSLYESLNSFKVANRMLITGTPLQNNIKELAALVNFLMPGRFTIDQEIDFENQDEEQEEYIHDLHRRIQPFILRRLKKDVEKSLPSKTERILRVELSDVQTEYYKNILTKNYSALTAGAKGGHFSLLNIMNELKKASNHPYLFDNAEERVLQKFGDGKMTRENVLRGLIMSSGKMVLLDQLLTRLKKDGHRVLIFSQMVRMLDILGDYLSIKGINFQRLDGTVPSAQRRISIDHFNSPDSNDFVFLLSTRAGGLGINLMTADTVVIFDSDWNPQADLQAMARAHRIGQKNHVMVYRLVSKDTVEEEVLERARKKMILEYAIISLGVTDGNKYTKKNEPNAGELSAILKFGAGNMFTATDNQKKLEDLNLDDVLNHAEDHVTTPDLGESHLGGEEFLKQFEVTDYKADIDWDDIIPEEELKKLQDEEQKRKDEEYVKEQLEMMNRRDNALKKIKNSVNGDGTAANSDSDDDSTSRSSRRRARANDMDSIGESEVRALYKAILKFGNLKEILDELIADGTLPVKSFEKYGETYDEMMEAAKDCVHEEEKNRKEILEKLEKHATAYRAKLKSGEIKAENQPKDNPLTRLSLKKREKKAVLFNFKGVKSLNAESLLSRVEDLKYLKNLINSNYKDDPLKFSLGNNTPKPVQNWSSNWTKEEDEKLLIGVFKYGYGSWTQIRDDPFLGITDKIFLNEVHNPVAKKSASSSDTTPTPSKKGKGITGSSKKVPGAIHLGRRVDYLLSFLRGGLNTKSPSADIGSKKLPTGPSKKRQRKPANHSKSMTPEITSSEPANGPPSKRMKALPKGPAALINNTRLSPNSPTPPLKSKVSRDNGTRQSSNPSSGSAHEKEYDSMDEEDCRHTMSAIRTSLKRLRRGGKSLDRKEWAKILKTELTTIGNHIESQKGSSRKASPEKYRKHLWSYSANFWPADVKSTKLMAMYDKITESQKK
# Method: ScCHD-1 Enzyme Inhibition Assay
# Type: functional
# Design: scale not given: in the data most compounds retested in dose-response had high values
# Test Settings: 30 µM
This listing pairs compounds with measured Percent Effect.
The reply should contain only the number, in %.

- CCn1cc(CN2C[C@@H]3CCCN3C[C@@H]2CCSC)c(C)n1: 0.13
- CN1CCCC2(CCN(C(=O)CCn3cncn3)C2)C1=O (configuration not stated): -0.366
- CC(C)CN1CCN(C(=O)NCc2cccnc2-n2cccn2)CC1: -11.7

## Task Look up Percent Effect for this compound: O=C(NC(Cc1ccsc1)c1nccs1)C1CCOCC1 (configuration not stated)
## Result 7.79

## Task Can you handle Cc1cnn(CC2CCCN2C(=O)c2ccc3nnc(C)n3c2)c1 (configuration not stated) next?
## Result -5.71

## Task Can you handle CC(C)CN1CCN(C)C2(CCN(Cc3ccsc3)CC2)C1=O next?
## Result 1.23

## Task Can you handle Cc1nc(CN2CCN(Cc3nccn3C)CC2)no1 next?
## Result -11.3

## Task Can you handle Cn1ccc(C(=O)NC2CCC23CCN(Cc2cccnc2)CC3)c1 (configuration not stated) next?
## Result 0.517

## Task Can you handle O=C(O)CCc1cccc(C2CCCN2Cc2ccc(F)c(F)c2)n1 (configuration not stated) next?
## Result -20.7

## Task Can you handle CCC(CC)c1cc(CNC(=O)N2CCOCC2CC)on1 (configuration not stated) next?
## Result -0.017

## Task Can you handle COc1ccc(C)cc1CSCCn1nc2ccccn2c1=O next?
## Result -22.4

## Task Can you handle O=C1COC2(COCCN(Cc3ccsc3)C2)CN1c1ccc(F)cc1 (configuration not stated) next?
## Result -1.9

====

# Target Under Test: Chromo domain-containing protein 1 (Saccharomyces cerevisiae (strain ATCC 204508 / S288c) (Baker's yeast))
# Method: ScCHD-1 Enzyme Inhibition Assay
# Assay type: functional
# Set-up: scale not given: in the data most compounds retested in dose-response had high values
# Test Settings: 30 µM
Parameter Measured: Percent Effect (%)
The reply should contain only the number, in %.

The cases that follow already have their Percent Effect on record.
• CN(C)C(=O)CN1C(=O)CCC12CCN(Cc1cccn1C)CC2 = -9.53
• Cc1noc(C)c1CN1CCN(Cc2ccncc2)c2ncccc2C1 = -0.129
• CN(C)CCOCC1CN(Cc2ccsc2)Cc2ccnn2C1 (stereo unspecified) = 0.0554
• c1cnc(N2CCOCC3(CCCN(CC4CC4)C3)C2)cn1 (stereo unspecified) = -4.17
• Cn1ccc(C(=O)N2CCN(CCc3ccccc3)CC2)cc1=O = -7.93

## Task Look up Percent Effect for this compound: COc1ccccc1OCC(=O)Nc1ncccc1Cl
## Result -3.43
